Taken from patent US20220265629A1.

assay: Food effect cross-over study, 200 mg (25 mg tablets), healthy volunteers: plasma pharmacokinetics; type: in vivo, human; settings: human, plasma, oral, 24 hours postdose, Fed, read-out: Plasma concentration, Median
Outcome Measure: concentration at 24 h (ng/mL)
Report only the number, with the unit ng/mL understood.

Prompt line: Name the recorded concentration at 24 h for `Cn1cc(S(=O)(=O)[C@@](C)(F)C2CCN(C(=O)Nc3ccon3)CC2)c(C(F)F)n1` .
Response line: 1670

* * *

test: Single ascending oral dose study in healthy volunteers: plasma pharmacokinetics; assay type: in vivo, human; settings: human, plasma, oral, 350 mg + 525 mg; read-out: AUC0-48, Geometric Mean
Outcome Measure: AUC(0-t)
Include the unit right after the number.

Prompt line: Find the recorded AUC(0-t) belonging to `Cn1cc(S(=O)(=O)[C@@](C)(F)C2CCN(C(=O)Nc3ccon3)CC2)c(C(F)F)n1` and report it.
Response line: 60500 ng·h/mL

* * *

experiment: Single ascending oral dose study in healthy volunteers: plasma pharmacokinetics; type: in vivo, human; conditions: human, plasma, oral, 3 mg; read-out: AUC0-24, Median
Outcome Measure: AUC(0-t) (ng·h/mL)
Hi! Could you send only the number? It should be in ng·h/mL, unit omitted.

Prompt line: Form field: reported AUC(0-t) of Cn1cc(S(=O)(=O)[C@@](C)(F)C2CCN(C(=O)Nc3ccon3)CC2)c(C(F)F)n1 [Compound I]
Response line: 504

* * *

assay: Single ascending oral dose study in healthy volunteers: plasma pharmacokinetics; type: in vivo, human; conditions: human, plasma, oral, 175 mg; read-out: AUC0-∞, Geometric Mean
Outcome Measure: AUC(0-inf) (ng·h/mL)
Reply numerically in ng·h/mL, unit not repeated.

Prompt line: Give its AUC(0-inf) value. Item: Cn1cc(S(=O)(=O)[C@@](C)(F)C2CCN(C(=O)Nc3ccon3)CC2)c(C(F)F)n1 [Compound I]
Response line: 38300

* * *

assay: HFrEF study Part 1 (SAD Cohorts 1 and 2): plasma pharmacokinetics; assay type: in vivo, human; details: human, plasma, oral, 500 mg, SAD Cohort 2, 500 mg split dose (n = 4); read-out: AUC0-24
Outcome Measure: AUC(0-t) (µg·h/mL)
Please state the figure in µg·h/mL; there is no need to write the unit.

Prompt line: May I ask what AUC(0-t) has been recorded for `Cn1cc(S(=O)(=O)[C@@](C)(F)C2CCN(C(=O)Nc3ccon3)CC2)c(C(F)F)n1` ?
Response line: 191

* * *

test: Single ascending oral dose study in healthy volunteers: plasma pharmacokinetics; format: in vivo, human; settings: human, plasma, oral, 175 mg; read-out: Vz/F, Geometric Mean
Outcome Measure: Vd/F (L)
Quick note: give the figure in L, leave out the unit.

Prompt line: Quick one: Vd/F for `Cn1cc(S(=O)(=O)[C@@](C)(F)C2CCN(C(=O)Nc3ccon3)CC2)c(C(F)F)n1` ?
Response line: 104

* * *

assay: HFrEF study Part 1 (SAD Cohorts 1 and 2): plasma pharmacokinetics; format: in vivo, human; conditions: human, plasma, oral; 175 mg single dose; read-out: AUC0-∞, mean (SD)
Outcome Measure: AUC(0-inf) (µg·h/mL)
Please reply with the bare figure in µg·h/mL and do not write the unit itself.

Prompt line: # query: AUC(0-inf) of entry `Cn1cc(S(=O)(=O)[C@@](C)(F)C2CCN(C(=O)Nc3ccon3)CC2)c(C(F)F)n1`
Response line: 53.8
